These entries and their values trace back to ChEMBL document CHEMBL1124495.

System: Serratia marcescens
Assay: Antibacterial activity carried out in vitro against Serratia marcescens MOR 84-41
Type: functional
The entries below are paired with their reported MIC.
Quick reminder: number only, in µg/mL, skip the unit.

In the examples that follow, each entry is paired with its recorded MIC.
Notebook entry, Serratia marcescens assay: MIC of `CCn1cc(C(=O)O)c(=O)c2c(F)c(F)c(N3CCN(C)CC3)c(F)c21` = ?
0.25

Give recorded MIC with Serratia marcescens for the following compound: `O=C(O)c1cn(C2CC2)c2cc(N3CCNCC3)c(F)cc2c1=O`
0.008

Request: MIC, test system Serratia marcescens, entry `CCn1cc(C(=O)O)c(=O)c2c(F)c(F)c(N3CCSCC3)c(F)c21`
2

Consider now this further compound.
MIC of `CCn1cc(C(=O)O)c(=O)c2c(F)c(F)c(N3CCOCC3)c(F)c21` on Serratia marcescens?
1
